pKd overview
- system-tested: T1, SARS-CoV-2 spike protein on authentic virus, strain SARS-CoV-2/human/AUS/VIC01/2020 (Victoria) (SARS-CoV-2, UniProt P0DTC2 14-1273)
- T1 construct: whole, on cells
- experiment-summary: whole-virus capture ELISA, half-maximal binding
On this scale, pKd is minus log10 of a concentration expressed in M (mol/L).

binder: antibody 158, full-length IgG (antibody, V domains shown, also called mAb 158; 158 IgG) VH: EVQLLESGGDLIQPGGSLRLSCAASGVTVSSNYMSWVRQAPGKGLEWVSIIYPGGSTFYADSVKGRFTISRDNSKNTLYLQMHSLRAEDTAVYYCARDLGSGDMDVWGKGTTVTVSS VL: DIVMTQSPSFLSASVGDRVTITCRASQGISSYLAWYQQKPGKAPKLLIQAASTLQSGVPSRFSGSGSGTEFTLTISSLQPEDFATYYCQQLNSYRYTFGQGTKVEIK
numeric-result: 9.30

binder: antibody 159, full-length IgG (antibody, V domains shown) VH: EVQLVESGGGVVQPGRSLRLSCAASGFTFSSYGMHWVRQAPGKGLEWVALISYDGGNRYYADSVKGRFTISRDNSKNTLYLQMNRLRAEDTAMYYCAKDRDDGWDWYYFMDVWGKGTTVTVSS VL: DIQLTQSPGTLSLSPGERATLSCRASQSISGNYLAWYQHKPGQAPRLLIYGASTRATGIPDRFSGSGSGTDFTLTISRLEPEDFAVYYCQQYGSSYTFGQGTKVEIK
numeric-result: 9.72

binder: Fab of antibody 159 (Fab, V domains shown) VH: EVQLVESGGGVVQPGRSLRLSCAASGFTFSSYGMHWVRQAPGKGLEWVALISYDGGNRYYADSVKGRFTISRDNSKNTLYLQMNRLRAEDTAMYYCAKDRDDGWDWYYFMDVWGKGTTVTVSS VL: DIQLTQSPGTLSLSPGERATLSCRASQSISGNYLAWYQHKPGQAPRLLIYGASTRATGIPDRFSGSGSGTDFTLTISRLEPEDFAVYYCQQYGSSYTFGQGTKVEIK
numeric-result: 9.54

binder: Fab of antibody 88 (Fab, V domains shown, also called 88 Fab; Fab 88) VH: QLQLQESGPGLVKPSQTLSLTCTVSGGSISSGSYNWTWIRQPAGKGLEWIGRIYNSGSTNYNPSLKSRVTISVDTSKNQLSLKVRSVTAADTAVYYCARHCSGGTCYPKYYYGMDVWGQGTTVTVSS VL: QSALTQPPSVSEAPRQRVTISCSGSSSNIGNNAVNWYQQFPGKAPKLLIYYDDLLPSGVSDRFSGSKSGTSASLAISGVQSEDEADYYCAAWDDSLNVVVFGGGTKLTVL
numeric-result: 8.92

binder: antibody 88, full-length IgG (antibody, V domains shown, also called mAb 88; 88 IgG) VH: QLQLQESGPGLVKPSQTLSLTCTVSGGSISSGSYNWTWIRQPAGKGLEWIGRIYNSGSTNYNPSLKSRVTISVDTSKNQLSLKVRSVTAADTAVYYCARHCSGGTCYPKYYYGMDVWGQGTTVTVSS VL: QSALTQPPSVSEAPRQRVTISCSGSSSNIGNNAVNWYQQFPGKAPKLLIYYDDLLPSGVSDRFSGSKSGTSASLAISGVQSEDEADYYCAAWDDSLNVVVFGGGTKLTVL
numeric-result: 9.60

*Q* What value of pKd has been recorded for this entry: Fab of antibody 158 (Fab, V domains shown, also called 158 Fab; Fab 158) VH: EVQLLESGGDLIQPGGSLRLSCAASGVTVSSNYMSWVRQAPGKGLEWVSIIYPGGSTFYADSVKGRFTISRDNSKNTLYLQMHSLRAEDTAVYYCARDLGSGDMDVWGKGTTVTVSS VL: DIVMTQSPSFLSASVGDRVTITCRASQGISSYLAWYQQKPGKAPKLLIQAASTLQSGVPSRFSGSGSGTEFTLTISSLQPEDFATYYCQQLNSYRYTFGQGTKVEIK
*A* 8.43
